B1: PhoQ; a variant is named by its letters at X, in order, P23837 (parent)
chain: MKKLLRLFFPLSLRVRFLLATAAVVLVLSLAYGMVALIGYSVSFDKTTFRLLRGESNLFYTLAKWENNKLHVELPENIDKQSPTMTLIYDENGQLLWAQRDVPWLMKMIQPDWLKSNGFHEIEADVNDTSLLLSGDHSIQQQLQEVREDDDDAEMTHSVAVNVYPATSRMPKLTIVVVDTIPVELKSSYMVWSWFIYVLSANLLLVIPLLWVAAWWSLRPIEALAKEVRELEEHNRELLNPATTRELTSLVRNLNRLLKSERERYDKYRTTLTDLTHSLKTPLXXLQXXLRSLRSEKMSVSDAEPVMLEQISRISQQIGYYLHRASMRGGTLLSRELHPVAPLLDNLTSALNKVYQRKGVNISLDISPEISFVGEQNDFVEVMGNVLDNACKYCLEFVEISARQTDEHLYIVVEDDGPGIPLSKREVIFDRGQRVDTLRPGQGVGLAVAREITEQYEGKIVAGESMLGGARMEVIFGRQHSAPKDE

Variants of: B1
assay-details: enrichment ratio after two sorts for PhoP signalling (ratio (wild type AVST 3.29)); higher = more functional
test-parameters: with PhoP (E. coli)
In all, about 140,000 sequences were measured (“enrichment ratio after two sorts for PhoP signalling”: median about 0, highest 2% from about 11 on). For the sample, the highest values were picked, then their nearest neighbours and some sequences at random.
property: enrichment ratio

As a guide, the following entries are already answered.
[
  {
    "mutant-label": "PIMI",
    "enrichment ratio": "≤ 0.25"
  },
  {
    "mutant-label": "FYKD",
    "enrichment ratio": "≤ 0.25"
  },
  {
    "mutant-label": "SPQQ",
    "enrichment ratio": "≤ 0.25"
  },
  {
    "mutant-label": "NVAH",
    "enrichment ratio": "≤ 0.25"
  },
  {
    "mutant-label": "SCIL",
    "enrichment ratio": 0.31
  }
]

Give the measured enrichment ratio of PVQQ .
≤ 0.25

Record: TQEN
≤ 0.25

Record: TQFN
14.2

Record: YPRI
≤ 0.25

Record: IQCQ
≤ 0.25

Record: EQLN
≤ 0.25

Record: SCCL
18.7

Record: TQLN
13.2

Record: HDGN
≤ 0.25

Record: GINV
≤ 0.25

Record: DCAI
≤ 0.25

Record: SVMH
22.9

Each recorded value in this set is attributed to a collection of fitness landscapes (doi:10.1126/science.1257360).
